Listed below: pIC50 values for each entry.
# assay-summary: Cell growth assay (WST-8) (Compounds B1-B278)
# Type: cell-based
# experimental-conditions: 96 h; T47D cell line; WST-8, 4 days; read-out: Cell Growth Inhibition in T47D cell line IC50
pIC50: −log10 of the molar value.

Could you share which pIC50 value was measured for C[C@@H]1Cc2c([nH]c3ccccc23)[C@@H](c2ccc(N3CCC4(CC3)CC(CN3CCN5c6ccc7c(c6OC[C@H]5C3)CN([C@H]3CCC(=O)NC3=O)C7=O)CO4)cn2)N1CC(F)(F)F (stereo partly drawn) [Compound B146] ?
8.00 to 9.00

Further cases:
Consider the compound shown here: COc1cc(N2CC3(CCC(CN4CCN5c6cc7c(cc6OC[C@@H]5C4)C(=O)N(C4CCC(=O)NC4=O)C7)CO3)C2)ccc1[C@@H]1c2[nH]c3ccccc3c2C[C@@H](C)N1CC(F)F (stereo partly drawn) [Compound B278] What is its recorded pIC50?
8.00 to 9.00

I have this compound here, C[C@@H]1Cc2c([nH]c3ccccc23)[C@@H](c2cnc(N3CCC4(CC3)CC(CN3CCN5c6cc7c(cc6OC[C@@H]5C3)C(=O)N(C3CCC(=O)NC3=O)C7)CO4)nc2)N1CC(F)(F)CO (stereo partly drawn) [Compound B171] , and I need its recorded pIC50.
< 8.00

---

Each record here notes measured pIC50.
# measured-on: CRBN/DDB1 (Homo sapiens (Human), UniProt Q96SW2)
# Sequence (Q96SW2 whole entry): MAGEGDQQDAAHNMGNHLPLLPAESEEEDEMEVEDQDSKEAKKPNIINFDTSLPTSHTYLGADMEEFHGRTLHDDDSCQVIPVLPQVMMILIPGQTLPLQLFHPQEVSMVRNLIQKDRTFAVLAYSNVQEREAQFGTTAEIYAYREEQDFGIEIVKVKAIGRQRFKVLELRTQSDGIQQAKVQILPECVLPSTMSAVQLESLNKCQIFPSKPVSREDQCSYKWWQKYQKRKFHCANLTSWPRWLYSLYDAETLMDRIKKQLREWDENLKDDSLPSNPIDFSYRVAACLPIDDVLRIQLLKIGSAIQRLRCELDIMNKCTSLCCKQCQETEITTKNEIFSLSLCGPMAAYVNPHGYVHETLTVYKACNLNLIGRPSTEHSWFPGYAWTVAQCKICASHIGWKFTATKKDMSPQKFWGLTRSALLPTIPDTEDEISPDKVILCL
# Sequence (Q16531 whole entry partner): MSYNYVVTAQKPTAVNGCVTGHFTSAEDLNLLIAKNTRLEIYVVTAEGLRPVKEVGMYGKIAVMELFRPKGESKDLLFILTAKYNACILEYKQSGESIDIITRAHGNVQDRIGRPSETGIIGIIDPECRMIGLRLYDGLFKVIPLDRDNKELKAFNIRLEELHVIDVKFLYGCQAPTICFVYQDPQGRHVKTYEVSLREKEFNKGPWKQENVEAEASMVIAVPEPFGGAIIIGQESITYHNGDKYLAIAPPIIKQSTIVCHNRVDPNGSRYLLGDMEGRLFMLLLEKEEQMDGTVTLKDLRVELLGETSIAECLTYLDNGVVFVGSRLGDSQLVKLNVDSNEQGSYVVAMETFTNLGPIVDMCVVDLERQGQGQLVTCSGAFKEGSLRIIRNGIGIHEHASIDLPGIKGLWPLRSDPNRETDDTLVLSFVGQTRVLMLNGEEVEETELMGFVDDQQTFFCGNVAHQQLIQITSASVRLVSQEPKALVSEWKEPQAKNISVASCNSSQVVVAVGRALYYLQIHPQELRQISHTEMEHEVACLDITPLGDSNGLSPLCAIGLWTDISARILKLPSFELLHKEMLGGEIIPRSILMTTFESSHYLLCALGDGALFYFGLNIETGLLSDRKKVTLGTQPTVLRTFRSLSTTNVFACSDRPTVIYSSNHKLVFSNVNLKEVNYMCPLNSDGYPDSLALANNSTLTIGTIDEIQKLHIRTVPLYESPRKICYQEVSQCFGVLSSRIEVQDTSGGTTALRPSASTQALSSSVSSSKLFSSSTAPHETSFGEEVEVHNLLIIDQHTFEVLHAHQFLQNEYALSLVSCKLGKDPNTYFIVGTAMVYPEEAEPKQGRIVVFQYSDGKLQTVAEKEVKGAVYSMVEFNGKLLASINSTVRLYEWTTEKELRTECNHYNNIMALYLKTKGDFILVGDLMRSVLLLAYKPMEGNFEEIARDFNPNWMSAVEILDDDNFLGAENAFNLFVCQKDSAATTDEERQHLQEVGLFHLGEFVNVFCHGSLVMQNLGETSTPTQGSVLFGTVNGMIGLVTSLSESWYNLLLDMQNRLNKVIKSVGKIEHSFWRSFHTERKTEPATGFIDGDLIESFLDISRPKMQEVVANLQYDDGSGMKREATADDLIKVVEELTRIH
# Format: binding
# experimental-conditions: His tagged CRBN+DDB-DLS7+CXU4, Cy5-labeled Thalidomide probe, one hour incubation; read-out: CRBN HTRF IC50
pIC50: −log10 of the molar value. Where a name gives a salt, the structure may show the parent alone.

Item COc1cc(N2CCC(CN3CCC(c4ccc(N[C@H]5CCC(=O)NC5=O)cc4F)CC3)CC2)ccc1[C@@H]1c2[nH]c3ccccc3c2C[C@@H](C)N1CC(F)F [Compound A34] has what recorded pIC50?
> 7.30

Entry under review: C[C@@H]1Cc2c([nH]c3ccccc23)[C@@H](c2cnc(N3CCC(CN4CCC5(CC4)COc4cc6c(cc45)CN(C4CCC(=O)NC4=O)C6=O)CC3)nc2)N1CC(F)(F)CO (some centres unmarked) [Compound A36] . Reported pIC50?
6.30 to 7.30

// returns reported pIC50 for input C[C@@H]1Cc2c([nH]c3ccccc23)[C@@H](c2cnc(N3CCC4(CC3)CC(CN3CCN5c6ccc7c(c6OC[C@@H]5C3)CN(C3CCC(=O)NC3=O)C7=O)C4)nc2)N1CC(F)F (some centres unmarked) [Compound A6]
> 7.30

---
Field request: pIC50 | item: COc1cc(N2CCC(CN3CCN4c5cc6c(cc5OC[C@@H]4C3)C(=O)N([C@H]3CCC(=O)NC3=O)C6)CC2)ccc1[C@@H]1c2[nH]c3ccccc3c2C[C@@H](C)N1CC(F)F [Compound A28]
6.30 to 7.30

Dear colleague, I am looking for the recorded pIC50 of the following compound: COc1cc(N2CCC(CN3CCN(c4ccc(C(=O)N[C@@H]5CCC(=O)NC5=O)nc4)CC3)CC2)ccc1[C@@H]1c2[nH]c3ccccc3c2C[C@@H](C)N1CC(F)F [Compound A57, formate]
> 7.30

Could you tell me which pIC50 is on file for C[C@@H]1Cc2c([nH]c3ccccc23)[C@H](c2cnc(N3CCC4(CC3)C[C@@H](CN3CCN5c6ccc(C(=O)N[C@H]7CCC(=O)NC7=O)nc6OC[C@H]5C3)CO4)nc2)N1CC(F)F [Compound A65] ?
6.30 to 7.30

Entry C[C@@H]1Cc2c([nH]c3ccccc23)[C@@H](c2ccc(N3CCC4(CC3)CC(CN3CCN5c6cc7c(cc6OC[C@@H]5C3)C(=O)N([C@H]3CCC(=O)NC3=O)C7)C4)nc2)N1CC(F)F [Compound A11] has what pIC50?
5.30 to 6.30

Which pIC50 is listed for C[C@@H]1Cc2c([nH]c3ccccc23)[C@@H](c2cnc(N3CCC4(CC3)CC(CN3CCC5(CC3)COc3cc6c(cc35)CN(C3CCC(=O)NC3=O)C6=O)C4)nc2)N1CC(F)F (some centres unmarked) [Compound A26] ?
5.30 to 6.30

Requested field: pIC50. Item: CS(=O)(=O)N1CCc2c([nH]c3ccccc23)[C@H]1c1c(F)cc(N2CCC3(CCN(C(=O)CN4Cc5cc6c(cc5C4)C(=O)N(C4CCC(=O)NC4=O)C6=O)CC3)CC2)cc1F (some centres unmarked) [Compound A8]
< 5.30

Entry C[C@@H]1Cc2c([nH]c3ccccc23)[C@@H](c2cnc(N3CCC4(CC3)CC(CN3CCN(c5ccc(NC6CCC(=O)NC6=O)cc5F)CC3)C4)nc2)N1CC(F)F (some centres unmarked) [Compound A16] : reported pIC50 = ?
6.30 to 7.30

Reported pIC50 for COc1cc(N2CCC(CN3CCC(c4ccc5c(c4)n(C)c(=O)n5C4CCC(=O)NC4=O)CC3)CC2)ccc1[C@@H]1c2[nH]c3ccccc3c2C[C@@H](C)N1CC(F)F (some centres unmarked) [Compound A35] : what is it?
6.30 to 7.30

---

# measured-on: ER (Homo sapiens (Human), UniProt P03372)
# Sequence (P03372 whole entry): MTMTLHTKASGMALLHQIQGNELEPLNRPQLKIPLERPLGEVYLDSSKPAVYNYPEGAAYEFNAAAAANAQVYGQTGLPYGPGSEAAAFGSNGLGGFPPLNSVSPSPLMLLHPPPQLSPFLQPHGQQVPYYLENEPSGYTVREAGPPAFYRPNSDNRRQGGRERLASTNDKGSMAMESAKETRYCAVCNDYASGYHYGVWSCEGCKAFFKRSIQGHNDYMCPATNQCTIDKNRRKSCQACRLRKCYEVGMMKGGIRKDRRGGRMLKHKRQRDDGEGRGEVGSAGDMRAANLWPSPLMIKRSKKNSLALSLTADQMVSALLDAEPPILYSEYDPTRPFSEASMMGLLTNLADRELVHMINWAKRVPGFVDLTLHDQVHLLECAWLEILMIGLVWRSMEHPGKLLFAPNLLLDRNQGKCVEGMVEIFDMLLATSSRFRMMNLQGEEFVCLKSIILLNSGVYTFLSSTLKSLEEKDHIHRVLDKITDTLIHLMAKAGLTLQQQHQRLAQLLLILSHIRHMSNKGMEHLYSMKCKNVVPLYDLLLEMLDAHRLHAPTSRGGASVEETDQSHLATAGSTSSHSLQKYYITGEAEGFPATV
# assay-summary: Western blot analysis (Compounds B1-B278)
# Assay type: cell-based
# experimental-conditions: ER degradation by traditional Western blot; DC50 classes
metric: Traditional Western Degradation Potency

# query: Traditional Western Degradation Potency of entry C[C@@H]1Cc2c([nH]c3ccccc23)[C@@H](c2c(F)cc(CN3CCC4(CCC(CN5Cc6cc7c(cc6C5)C(=O)N(C5CCC(=O)NC5=O)C7=O)CC4)CC3)cc2F)N1CC(F)F (stereo partly shown)
C (“C”: >100 nM)

Give its Traditional Western Degradation Potency value. Item: COc1cc([C@H]2CC[C@H](C(=O)N3CCC(N4Cc5cc6c(cc5C4)C(=O)N(C4CCC(=O)NC4=O)C6=O)CC3)CC2)ccc1[C@@H]1c2[nH]c3ccccc3c2C[C@@H](C)N1CC(F)F (stereo partly shown)
B (“B”: 10-100 nM)

What does the record list as Traditional Western Degradation Potency for COc1cc([C@H]2CC[C@H](C(=O)N3CCC(N4Cc5cc6c(cc5C4)C(=O)N(C4CCC(=O)NC4=O)C6=O)CC3)CC2)ncc1[C@@H]1c2[nH]c3ccccc3c2C[C@@H](C)N1CC(F)F (stereo partly shown) ?
C (“C”: >100 nM)

Sample C[C@@H]1Cc2c([nH]c3ccccc23)[C@@H](c2c(F)cc(N3CC(CC(=O)N4Cc5cc6c(cc5C4)C(=O)N(C4CCC(=O)NC4=O)C6)C3)cc2F)N1CC(F)F (stereo partly shown) — what was its Traditional Western Degradation Potency?
C (“C”: >100 nM)

Look at this compound and give its reported Traditional Western Degradation Potency. C[C@@H]1Cc2c([nH]c3ccccc23)[C@@H](c2cnc(N3CCC(C(=O)N4CCC(N5Cc6cc7c(cc6C5)C(=O)N(C5CCC(=O)NC5=O)C7=O)CC4)CC3)nc2)N1CC(F)F (stereo partly shown)
A (“A”: <10 nM)

Please look up its Traditional Western Degradation Potency: C[C@@H]1Cc2c([nH]c3ccccc23)[C@@H](c2ncc(C3=CCC(C(=O)N4CCC(N5Cc6cc7c(cc6C5)C(=O)N(C5CCC(=O)NC5=O)C7=O)CC4)CC3)cc2F)N1CC(C)(F)F (stereo partly shown)
C (“C”: >100 nM)

From here, focus on the item given below.
Quick one: Traditional Western Degradation Potency of C[C@@H]1Cc2c([nH]c3ccccc23)[C@@H](c2c(F)cc(C3CCC(CN4CCC(N5Cc6cc7c(cc6C5)C(=O)N(C5CCC(=O)NC5=O)C7)CC4)CC3)cc2F)N1CC(F)F (stereo partly shown) ?
B (“B”: 10-100 nM)

---

# measured-on: ER (Homo sapiens (Human))
# assay-summary: Western blot analysis (Compounds B1-B278)
# Assay type: cell-based
# experimental-conditions: ER degradation by traditional Western blot; DC50 classes
# Text: Western Blot Analysis. […] The blots are scanned, and the band intensities are quantified (e.g., by using GelQuant.NET software provided by biochemlabsolutions.com). […] Western Blot Analysis. […] The blots were scanned, and the band intensities were quantified using GelQuant.NET software provided by biochemlabsolutions.com. […]
metric: Traditional Western Degradation Potency

Worked examples follow.
Bench note: what Traditional Western Degradation Potency did C[C@@H]1Cc2c([nH]c3ccccc23)[C@@H](c2c(F)cc(N3CC4(CN(C(=O)CN5Cc6cc7c(cc6C5)C(=O)N(C5CCC(=O)NC5=O)C7=O)C4)C3)cc2F)N1CC(F)F (some centres unmarked) show?
A (“A”: <10 nM)

Looking for the measured Traditional Western Degradation Potency of C[C@@H]1Cc2c([nH]c3ccccc23)[C@@H](c2c(F)cc(CN3CCC4(CC3)CC(CN3Cc5cc6c(cc5C3)C(=O)N(C3CCC(=O)NC3=O)C6=O)C4)cc2F)N1CC(F)F (some centres unmarked) , can you help?
C (“C”: >100 nM)

Item C[C@@H]1Cc2c([nH]c3ccccc23)[C@@H](c2ccc(N3CCC(C(=O)N4CCC(N5Cc6cc7c(cc6C5)C(=O)N(C5CCC(=O)NC5=O)C7=O)CC4)CC3)cc2F)N1CC(F)F (some centres unmarked) has what recorded Traditional Western Degradation Potency?
A (“A”: <10 nM)

Quick one: Traditional Western Degradation Potency of C[C@@H]1Cc2c([nH]c3ccccc23)[C@H](c2c(F)cc(CN3CCC4(CCC(C(=O)N5Cc6cc7c(cc6C5)C(=O)N(C5CCC(=O)NC5=O)C7=O)CC4)CC3)cc2F)N1CC(F)F (some centres unmarked) ?
C (“C”: >100 nM)

Then this compound:
What value of measured Traditional Western Degradation Potency is listed for C[C@@H]1Cc2c([nH]c3ccccc23)[C@@H](c2c(F)cc(N3CC4(CCN(CC(=O)N5Cc6cc7c(cc6C5)C(=O)N(C5CCC(=O)NC5=O)C7)C4)C3)cc2F)N1CC(F)F (some centres unmarked) ?
A (“A”: <10 nM)
